# TEST_METHOD_NOTES: amyloid nucleation score (Sup35N fusion, yeast selection) (log enrichment); library NNK3; higher = more nucleation; inactive = no reads after selection;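 further: zero at mode of non-aggregating sequences after 7 days selection at 30°C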

[
  {
    "SUBSTANCE": "ARLETHCFMRRRGQF",
    "amyloid nucleation score": "inactive"
  },
  {
    "SUBSTANCE": "IDISIL",
    "amyloid nucleation score": "inactive"
  },
  {
    "SUBSTANCE": "VKSLIELCRYNRPLALDLNI",
    "amyloid nucleation score": -0.519
  },
  {
    "SUBSTANCE": "VMMFYNILHSQIDKLFKLLA",
    "amyloid nucleation score": "inactive"
  },
  {
    "SUBSTANCE": "QRDHMGFSGDLW",
    "amyloid nucleation score": "inactive"
  },
  {
    "SUBSTANCE": "YIVSSSD",
    "amyloid nucleation score": "inactive"
  },
  {
    "SUBSTANCE": "CWAYVMRT",
    "amyloid nucleation score": "inactive"
  },
  {
    "SUBSTANCE": "RRNHMEFWTCSKYPRGLCGI",
    "amyloid nucleation score": "inactive"
  },
  {
    "SUBSTANCE": "AFSFPSERVWVWNFHMRDKE",
    "amyloid nucleation score": 3.11
  },
  {
    "SUBSTANCE": "VSVFMKLVRFET",
    "amyloid nucleation score": 1.17
  },
  {
    "SUBSTANCE": "LHKTTMYFRKISLRRFEMLL",
    "amyloid nucleation score": "inactive"
  },
  {
    "SUBSTANCE": "GHCEYVVCYVNCRFVQMSVR",
    "amyloid nucleation score": 1.65
  },
  {
    "SUBSTANCE": "IIPVTSRDYSRKPYPTLERV",
    "amyloid nucleation score": "inactive"
  },
  {
    "SUBSTANCE": "GTWSVMCSYEPMAR",
    "amyloid nucleation score": "inactive"
  },
  {
    "SUBSTANCE": "VIKTHMWLGL",
    "amyloid nucleation score": 0.633
  },
  {
    "SUBSTANCE": "TGCSSF",
    "amyloid nucleation score": "inactive"
  },
  {
    "SUBSTANCE": "QSTGCLYSYLLANVGKSSGK",
    "amyloid nucleation score": "inactive"
  },
  {
    "SUBSTANCE": "PFHSVYVDDDAWNGVCLPAV",
    "amyloid nucleation score": "inactive"
  },
  {
    "SUBSTANCE": "QFMNKIIMCLGSF",
    "amyloid nucleation score": -0.263
  },
  {
    "SUBSTANCE": "PVQACRCKSH",
    "amyloid nucleation score": "inactive"
  },
  {
    "SUBSTANCE": "SRVTSIWRGYNFINIKRGDL",
    "amyloid nucleation score": -0.42
  },
  {
    "SUBSTANCE": "NYYYMYGKCSI",
    "amyloid nucleation score": 2.28
  },
  {
    "SUBSTANCE": "WVGNTVKHKLGLVGNCGSCA",
    "amyloid nucleation score": -0.73
  },
  {
    "SUBSTANCE": "QSKSYFTL",
    "amyloid nucleation score": "inactive"
  },
  {
    "SUBSTANCE": "CCRVRTS",
    "amyloid nucleation score": "inactive"
  },
  {
    "SUBSTANCE": "QGKCDSELRAAAMDI",
    "amyloid nucleation score": "inactive"
  },
  {
    "SUBSTANCE": "LDMPCILLYLRSNWGRFG",
    "amyloid nucleation score": "inactive"
  },
  {
    "SUBSTANCE": "LNDGALDGQSTDALMGMEMR",
    "amyloid nucleation score": "inactive"
  },
  {
    "SUBSTANCE": "TEQNVSGCEGEGSYGYTRYA",
    "amyloid nucleation score": "inactive"
  },
  {
    "SUBSTANCE": "QLWNWVFYYISNILGKGMHL",
    "amyloid nucleation score": "inactive"
  },
  {
    "SUBSTANCE": "YRLQLPYSVNEAVFLLVGSK",
    "amyloid nucleation score": "inactive"
  },
  {
    "SUBSTANCE": "GVDRRIR",
    "amyloid nucleation score": "inactive"
  },
  {
    "SUBSTANCE": "TMWLLCELFVTC",
    "amyloid nucleation score": "inactive"
  },
  {
    "SUBSTANCE": "TCSYNSGKYNFE",
    "amyloid nucleation score": "inactive"
  },
  {
    "SUBSTANCE": "SVSEFSFGSKCIVRRLGI",
    "amyloid nucleation score": "inactive"
  },
  {
    "SUBSTANCE": "MMMQLNGVHMV",
    "amyloid nucleation score": "inactive"
  },
  {
    "SUBSTANCE": "MQYLIYPTWLVIELNC",
    "amyloid nucleation score": 0.684
  },
  {
    "SUBSTANCE": "QGLSCDFRVLLLIYRSCGRG",
    "amyloid nucleation score": "inactive"
  },
  {
    "SUBSTANCE": "NHLGVRWVLSMNMTFPHHNL",
    "amyloid nucleation score": 1.29
  },
  {
    "SUBSTANCE": "CNGFFCGMCCYTKRKMKYAI",
    "amyloid nucleation score": "inactive"
  },
  {
    "SUBSTANCE": "FVWLWVVISLNCSNNEFVFN",
    "amyloid nucleation score": 2.51
  },
  {
    "SUBSTANCE": "LIGDNRTGEVALYRFGSRMG",
    "amyloid nucleation score": "inactive"
  },
  {
    "SUBSTANCE": "LVFPPAY",
    "amyloid nucleation score": "inactive"
  },
  {
    "SUBSTANCE": "CNISSFNT",
    "amyloid nucleation score": "inactive"
  },
  {
    "SUBSTANCE": "RFAPFMRGM",
    "amyloid nucleation score": -0.784
  },
  {
    "SUBSTANCE": "VCQGFSKFLRWSQVRFLSMA",
    "amyloid nucleation score": -0.288
  },
  {
    "SUBSTANCE": "LLSLIT",
    "amyloid nucleation score": "inactive"
  },
  {
    "SUBSTANCE": "YNLGRNS",
    "amyloid nucleation score": "inactive"
  },
  {
    "SUBSTANCE": "LFANTYVV",
    "amyloid nucleation score": "inactive"
  },
  {
    "SUBSTANCE": "YVDLAGLMLMADMA",
    "amyloid nucleation score": "inactive"
  },
  {
    "SUBSTANCE": "VWVLHRRRSKYMQVTVWLDL",
    "amyloid nucleation score": "inactive"
  },
  {
    "SUBSTANCE": "ERSITGYNPPRRV",
    "amyloid nucleation score": -0.561
  },
  {
    "SUBSTANCE": "YKCMLYSFG",
    "amyloid nucleation score": "inactive"
  },
  {
    "SUBSTANCE": "LGNTCKIDWRISYHMTPSDI",
    "amyloid nucleation score": "inactive"
  },
  {
    "SUBSTANCE": "PYAPVWKRGRNYFTNSFLYM",
    "amyloid nucleation score": "inactive"
  },
  {
    "SUBSTANCE": "YHEGLYCGWSYNNCYLTFIG",
    "amyloid nucleation score": 0.821
  },
  {
    "SUBSTANCE": "HNRLSQVTDQLGRLVSRSLR",
    "amyloid nucleation score": "inactive"
  },
  {
    "SUBSTANCE": "KVRSVDCRNTSNKDHW",
    "amyloid nucleation score": "inactive"
  },
  {
    "SUBSTANCE": "LFPLMKQYLARGFSQDIRSA",
    "amyloid nucleation score": "inactive"
  }
]

----------
# TEST_METHOD_NOTES: amyloid nucleation score (Sup35N fusion, yeast selection) (log enrichment); library NNK1; higher = more nucleation; inactive = no reads after selection
# if value of amyloid nucleation score reaches 0.2, tag rule met; if it stays below, tag rule not met

[
  {
    "SUBSTANCE": "VDCLFLKHHFFLTVSSMVRN",
    "LABEL": "rule met"
  },
  {
    "SUBSTANCE": "CSCVCETEGRLSSSCYHHMP",
    "LABEL": "rule not met"
  },
  {
    "SUBSTANCE": "SALHVHRVKGSRREVSRDT",
    "LABEL": "rule not met"
  },
  {
    "SUBSTANCE": "ICSVRSELNSSTRC",
    "LABEL": "rule met"
  },
  {
    "SUBSTANCE": "GVVSFNFDSLQF",
    "LABEL": "rule not met"
  },
  {
    "SUBSTANCE": "CLSCSNICFFIHSVNWDVFS",
    "LABEL": "rule met"
  },
  {
    "SUBSTANCE": "RFDVSMRYLSRSDVYDICAR",
    "LABEL": "rule not met"
  },
  {
    "SUBSTANCE": "ICKLRNSTGSTRIT",
    "LABEL": "rule met"
  },
  {
    "SUBSTANCE": "MERDEFKFLGERLGWLSCWR",
    "LABEL": "rule met"
  },
  {
    "SUBSTANCE": "HESGRRAIYS",
    "LABEL": "rule not met"
  },
  {
    "SUBSTANCE": "VSEDVFLWVKLSLTAGSEGR",
    "LABEL": "rule not met"
  },
  {
    "SUBSTANCE": "GSIQDVIRLAIDVGRAALTE",
    "LABEL": "rule met"
  },
  {
    "SUBSTANCE": "NCDDIYKYMVIVQGSQLFI",
    "LABEL": "rule not met"
  },
  {
    "SUBSTANCE": "GAKEDERSNWSVVNMLGREL",
    "LABEL": "rule not met"
  },
  {
    "SUBSTANCE": "WMWGGGRWRRVPRRCMVVGR",
    "LABEL": "rule not met"
  },
  {
    "SUBSTANCE": "SFCAYFVAGIAGNIRVS",
    "LABEL": "rule not met"
  },
  {
    "SUBSTANCE": "DIGAVIAWSNRLVWLQPTLL",
    "LABEL": "rule not met"
  },
  {
    "SUBSTANCE": "FVGTKQWMARGLVNDVKPVH",
    "LABEL": "rule not met"
  },
  {
    "SUBSTANCE": "SFFGFMVMTSRDDRFRLQ",
    "LABEL": "rule met"
  },
  {
    "SUBSTANCE": "LMSLIMI",
    "LABEL": "rule not met"
  },
  {
    "SUBSTANCE": "FHDLGSKCYSMRGTADCFSR",
    "LABEL": "rule met"
  },
  {
    "SUBSTANCE": "TRTTKMAH",
    "LABEL": "rule met"
  },
  {
    "SUBSTANCE": "TFYRLSISVVSLNMVIHPGP",
    "LABEL": "rule met"
  },
  {
    "SUBSTANCE": "DYGNTVNYSSGEDVHWL",
    "LABEL": "rule not met"
  },
  {
    "SUBSTANCE": "FFLVRMCKSRDVTVTVGGSH",
    "LABEL": "rule met"
  },
  {
    "SUBSTANCE": "YFNVSWID",
    "LABEL": "rule met"
  },
  {
    "SUBSTANCE": "QFMIICHMMVNNW",
    "LABEL": "rule met"
  },
  {
    "SUBSTANCE": "NADCAYYDERYRYSSWLYFY",
    "LABEL": "rule not met"
  },
  {
    "SUBSTANCE": "GAKFSTVSRENDDMHFAWLW",
    "LABEL": "rule met"
  },
  {
    "SUBSTANCE": "CLVELVYFCGLSVGQ",
    "LABEL": "rule not met"
  },
  {
    "SUBSTANCE": "GLLETYDWAVQWTGHLEC",
    "LABEL": "rule not met"
  },
  {
    "SUBSTANCE": "LDTYRVNWMMRLATYNMMVM",
    "LABEL": "rule met"
  },
  {
    "SUBSTANCE": "RGGWRTVQCSLNQGWLRRYL",
    "LABEL": "rule not met"
  },
  {
    "SUBSTANCE": "VVVYGCLYILVARRYDTIAW",
    "LABEL": "rule met"
  },
  {
    "SUBSTANCE": "IQSFAMLMQVCLIAHLYRRL",
    "LABEL": "rule not met"
  }
]
